system: common ragweed; test: Test C pre-/postemergence herbicide test; type: in vivo, Ambrosia elatior; set-up: key: 0 = no effect, 100 = complete control; conditions: postemergence; 62 g ai/ha; scale 0 to 100
Quick reference: Plant response rating, Ragweed of the listed items.
measurement-name: Plant response rating, Ragweed

INSERT INTO assay_data (compound_structure_string, recorded_result) VALUES
  ('C=Cn1nc(C(C)(C)C)cc1C(=O)Nc1cccc(C(=O)N(CC)CC)c1', 20),
  ('CCNC(=O)c1cccc(NC(=O)c2cc(C(C)(C)C)nn2CC(F)(F)F)c1', 30),
  ('C#CCNC(=O)c1cccc(NC(=O)c2cc(C(C)(C)C)nn2CC)n1', 0),
  ('CCn1nc(C(C)(C)C)cc1C(=O)Nc1cccc(C(=O)NC2CC2)c1', 50);

---

Quick reference: Plant response rating, Lambsquarters of the listed items.
tested on: lambsquarters; test: Test C pre-/postemergence herbicide test; type: in vivo, Chenopodium album; conditions: 62 g ai/ha; preemergence; scale 0 to 100
measurement-name: Plant response rating, Lambsquarters

INSERT INTO measurements (compound, recorded_result) VALUES
  ('CCNC(=O)c1ccc(F)c(NC(=O)C2CC(C(C)(C)C)=NN2CC)c1 (racemic)', 95),
  ('CCn1nc(C2(C)CC2)cc1C(=O)Nc1cc(C(=O)N2CC=CC2)ccc1F', 100),
  ('CCc1nn(C(C)C)nc1C(=O)Nc1cccc(C(=O)N(C)CC)c1', 100),
  ('CCc1nn(C(C)C)nc1C(=O)Nc1cccc(C(=S)N(C)C)c1', 100),
  ('CCNC(=S)c1cccc(NC(=O)c2nn(C(C)(C)C)nc2C)c1', 95),
  ('CCN(CC)C(=O)c1cccc(NC(=O)c2sc(C(C)(C)C)nc2C)c1', 80);

---

system: wild oat; assay: Test B postemergence herbicide test; format: in vivo, Avena fatua; conditions: postemergence, 500 g ai/ha; scale 0 to 100, 0 is no effect, 100 is complete control
Sorting guide: entries reporting Oat, Wild plant response rating beneath 20 go in the MET pile, the rest go in the NOT MET pile.

INSERT INTO results (compound_structure_string, target_of_assay, cat) VALUES
  ('CCn1nc(C(C)(C)C)cc1C(=O)Nc1ccc(OC)c(OC)c1', 'wild oat', 'NOT MET'),
  ('CC(=NO)c1cccc(NC(=O)c2cc(C(C)(C)C)n[nH]2)c1', 'wild oat', 'MET'),
  ('C#CCNC(=O)c1cc(NC(=O)c2cc(C(C)(C)C)nn2CC)ccn1', 'wild oat', 'MET'),
  ('C#CCNC(=O)c1cncc(NC(=O)c2cc(C(C)(C)C)nn2CC)n1', 'wild oat', 'NOT MET');

---

system: blackgrass; test: Test B postemergence herbicide test; assay type: in vivo, Alopecurus myosuroides; conditions: Postemergence, 500 g ai/ha; scale 0 (no effect) to 100 (complete control)
measurement-name: Blackgrass plant response rating

INSERT INTO results (compound_structure_string, recorded_result) VALUES
  ('CCNC(=O)c1ccc(F)c(NC(=O)c2nn(C(C)C)nc2C)c1', 0),
  ('CN(C)C(=O)c1cccc(NC(=O)c2nn(C(C)(C)C)nc2Br)c1', 50),
  ('C=CCN(CC=C)C(=O)c1cccc(NC(=O)c2nn(C(C)(C)C)nc2CC)c1', 40),
  ('Cc1nn(C(C)(C)C)nc1C(=O)Nc1cccc(C(=O)N2CC=CC2)n1', 40),
  ('CCn1nc(C(C)(C)C)cc1C(=O)Nc1cccc(OS(=O)(=O)CC)c1', 80);
